Known IC50 of a selection of compounds
- Organism: Homo sapiens
- Test Method Notes: Inhibitory concentration required to inhibit human complement induced hemolysis by 50%
- Type: functional, organism-based

Below are worked cases with known answers.
Compound	Result
CC1=CCC([C@]2(C)Cc3c(O)cc(C(=O)O)cc3O2)CC1 (stereo not given in full)	730 µM
COc1ccc(C(=O)O)c2c1C[C@@](C)(C1CC=C(C)CC1)O2 (stereo not given in full)	380 µM
C[C@@H]1CCC2C(C)(C)[C@H](O)[C@H](O)C[C@]2(C)[C@@]12Cc1c(O)cc(C(=O)O)c(C=O)c1O2 (stereo not given in full)	680 µM
CC1=CCC([C@]2(C)Cc3c(Oc4ccccc4)cc(C(=O)O)cc3O2)CC1 (stereo not given in full)	> 824 µM
COc1cc(C=O)cc2c1C[C@@](C)(C1CC=C(C)CC1)O2 (stereo not given in full)	> 1050 µM

query: Consider the compound COc1ccc(C(=O)O)c2c1C[C@](C)(C1CC=C(C)CC1)O2 (stereo not given in full) and give its measured IC50.
result: 680 µM

query: Can you handle CC1=CCC([C@@]2(C)Cc3c(O)ccc(C(=O)O)c3O2)CC1 (stereo not given in full) next?
result: 2100 µM

query: Can you handle COc1cc(C(=O)O)cc2c1CC(C)(C1CC[C@](C)(O)[C@H](O)C1)O2 (stereo not given in full) next?
result: > 892 µM

query: Can you handle CC1=CCC([C@]2(C)Cc3c(O)cc(C=O)cc3O2)CC1 (stereo not given in full) next?
result: 515 µM

query: Can you handle COc1cc(C(=O)O)cc2c1C[C@@](C)(C1CC=C(C)CC1)O2 (stereo not given in full) next?
result: > 1000 µM
